Reference source for all entries: PubChem BioAssay (NCI)

Test system: UACC-257 melanoma
Assay: NCI-60 one-dose screen, 48 h
Conditions: 10 µM
The panel holds about 83,000 compounds, 20% with a hit somewhere; the sample as a whole holds those more often. Calls of active or inactive are those of the source. How the source made its calls: active means growth percent below 10; inactive means the rest.
Tick one outcome: t = active, f = inactive

Prompt: Tell me the recorded outcome of this test for "NC(=O)c1c(NC(=O)c2cccc(C(F)(F)F)c2F)sc2c1CCC(=O)C2" .
Completion: f

Prompt: Tell me the recorded outcome of this test for "CNC(=O)c1cc(N2CCc3cc(NC(=O)Nc4ccc(Cl)c(Cl)c4)ccc32)ccn1" .
Completion: f

Prompt: Tell me the recorded outcome of this test for "O=C(Nc1cccc(Cl)c1)Nc1nc2ccc([N+](=O)[O-])cc2s1" .
Completion: t

Prompt: Tell me the recorded outcome of this test for "Oc1ccc(-c2nnc(SCc3ccc(O)c4ncccc34)n2-c2ccccc2)cc1" .
Completion: t

Prompt: Tell me the recorded outcome of this test for "Oc1ccccc1-c1nnc(SCc2ccc(O)c3ncccc23)o1" .
Completion: f

Prompt: Tell me the recorded outcome of this test for "Clc1ccccc1/C=C/c1nn2c(-c3ccncc3)nnc2s1" .
Completion: f

Prompt: Tell me the recorded outcome of this test for "COc1cc2oc(-c3cccc(NC(=O)c4cc(NC(=O)[C@H](C)NC(=O)OC(C)(C)C)ccc4C)c3)cc(=O)c2c(OC)c1OC" .
Completion: f

Prompt: Tell me the recorded outcome of this test for "COc1cc2cc(Oc3ccc(NC(=O)Nc4cccc(C(F)(F)F)c4)cc3)c(C)nc2cc1OCCN(C)C" .
Completion: f

Prompt: Tell me the recorded outcome of this test for "CC(=O)Oc1ccc(CCN2C(=O)CSC2=S)cc1" .
Completion: f

Prompt: Tell me the recorded outcome of this test for "CCN1CCN(Cc2ccc(C(=O)Nc3nc4ccc(Oc5ccnc(C(=O)NC)c5)cc4s3)cc2C(F)(F)F)CC1" .
Completion: t

Prompt: Tell me the recorded outcome of this test for "N#C/C(=C\c1ccc(-c2ccc(F)cc2)o1)C(=O)Nc1ncc(Cc2ccc(Cl)cc2Cl)s1" .
Completion: f

###

Tested on: MDA-MB-435 melanoma
Test: NCI-60 one-dose screen, 48 h
Conditions: 10 µM unless noted
Experimental: Growth inhibition of the MDA-MB-435 human Melanoma tumor cell line is measured as a screen for anti-cancer activity. Cells are grown in 96 well plates and exposed to the test compound for 48 hours. Compounds are tested at a single concentration, which is 10^-5 M for most compounds. The reported endpoint is percent growth (GI% or GIPRCNT), where numbers from 0 - 100% represent growth inhibition, and numbers from -100% - 0 represent cell death. […]
Compounds without any hit were thinned out: in the full panel of roughly 83,000, 20% have a hit. Calls of active or inactive are those of the source. Rule for the calls: active = growth percent below 10; inactive = the rest.
Tick one outcome: true (1) for active, false (0) for inactive

Prompt: Tell me the recorded outcome of this test for "COc1ccc(OC)c(NC2=C(Cl)C(=O)C(C)=C(C)C2=O)c1" .
Completion: false (0)

Prompt: Tell me the recorded outcome of this test for "COc1cc(/C=N/n2cnc3oc(-c4ccccc4)cc3c2=N)cc(CN2CCCC2)c1O" .
Completion: false (0)

Prompt: Tell me the recorded outcome of this test for "N#C/C(=C\c1ccc2ccccc2c1)C(=O)Nc1sc2c(c1C#N)CCC2" .
Completion: false (0)

Prompt: Tell me the recorded outcome of this test for "CC(=O)NC(C)(C)C(=O)N[C@@H](C)C(=O)NC(C)(C)C(=O)N[C@@H](C)C(=O)NC(C)(C)C(=O)N[C@@H](C)C(=O)N[C@@H](CCC(N)=O)C(=O)NC(C)(C)C(=O)N[C@H](C(=O)NC(C)(C)C(=O)NCC(=O)N[C@@H](CC(C)C)C(=O)NC(C)(C)C(=O)N1CCC[C@H]1C(=O)N[C@H](C(=O)NC(C)(C)C(=O)NC(C)(C)C(=O)N[C@@H](CCC(N)=O)C(=O)N[C@@H](CCC(N)=O)C(=O)N[C@H](CO)CC1CCCCC1)C(C)C)C(C)C" .
Completion: true (1)

Prompt: Tell me the recorded outcome of this test for "COc1ccc2c(c1)c(-c1nn3c(=O)cc(-c4ccccc4)nc3s1)cn2C" .
Completion: true (1)

Prompt: Tell me the recorded outcome of this test for "CCN(CC)CCN1C(=O)c2c(c3c4cc(Br)ccc4[nH]c3c3ccc4ccccc4c23)C1=O" .
Completion: true (1)

Prompt: Tell me the recorded outcome of this test for "CCOC(=O)c1c(NC(=O)c2cccc(C(F)(F)F)c2)sc2c(CN3CCN(C)CC3)c(O)ccc12" .
Completion: true (1)

Prompt: Tell me the recorded outcome of this test for NC(=O)N1N=C(c2cc3ccccc3oc2=O)CC1c1cn(-c2ccccc2)nc1-c1ccc(Cl)cc1 (configuration not stated) .
Completion: false (0)

Prompt: Tell me the recorded outcome of this test for "O=C(CSc1ccc(-c2nc3ccccc3[nH]2)cn1)N1CCN(c2ccccc2F)CC1" .
Completion: false (0)

Prompt: Tell me the recorded outcome of this test for "CC(=O)C1=NN(c2ccc(Cl)cc2)C(=O)CN1C" .
Completion: false (0)

Prompt: Tell me the recorded outcome of this test for Cc1ccc(NC(=O)N[C@@H](Cc2cc(F)cc(F)c2)C(=O)NC2C(=O)N3CCC[C@H]3C(=O)N3CCCC[C@H]3C(=O)N[C@@H](C)C(=O)N3C[C@H](C)C[C@H]3C(=O)O[C@H]2C)c(F)c1 (some centres not stated) .
Completion: false (0)

Prompt: Tell me the recorded outcome of this test for "Clc1ccc(-c2csc(N/N=C/c3nc4ccccc4n3C3CC3)n2)cc1" .
Completion: false (0)

Prompt: Tell me the recorded outcome of this test for "Cc1ccccc1/C=C/c1nn2c(-c3ccoc3C)nnc2s1" .
Completion: false (0)

Prompt: Tell me the recorded outcome of this test for "Nc1nc(-c2cccc([N+](=O)[O-])c2)c(N=Nc2cccc(Cl)c2)s1" .
Completion: false (0)

Prompt: Tell me the recorded outcome of this test for CCOC(=O)C1=C(C)Nc2nc3ccccc3n2C1c1cccc(Br)c1 (configuration not stated) .
Completion: true (1)

Prompt: Tell me the recorded outcome of this test for "Clc1ccc(-c2nc3ccc(/C(=N\N=C\c4ccccc4)c4ccccc4)cc3[nH]2)cc1" .
Completion: false (0)

Prompt: Tell me the recorded outcome of this test for "O=C1C[C@@H](c2ccccc2)Oc2c(Cc3ccccc3O)c(O)c(Cc3cc(Cc4cc(Cc5ccccc5O)ccc4O)ccc3O)c(O)c21" .
Completion: false (0)

Prompt: Tell me the recorded outcome of this test for C/C(=C(/C)C1CC1CCN(C(=O)c1ccccn1)S(=O)(=O)c1ccc(C)cc1)C1CCCCC1 (configuration not stated) .
Completion: false (0)

Prompt: Tell me the recorded outcome of this test for "O=C(Nc1ccc(F)cc1)c1cc(-c2ccc(F)cc2F)ccc1O" .
Completion: true (1)

Prompt: Tell me the recorded outcome of this test for "Fc1ccccc1/C=C(/C1=NCCN1)n1cnc2ccccc21" .
Completion: false (0)

Prompt: Tell me the recorded outcome of this test for "CS(=O)(=O)c1ccc2c(c1)c1c(n2S(=O)(=O)c2ccc(Cl)cc2)CCCC1" .
Completion: true (1)

Prompt: Tell me the recorded outcome of this test for "N#C/C(=C\c1ccc(N2CCCCC2)cc1)C(=O)Nc1sc2c(c1C#N)CCC2" .
Completion: false (0)

Prompt: Tell me the recorded outcome of this test for "COc1cc(-c2nc(SCc3ccc(C)cc3)[nH]c(=O)c2C#N)ccc1OCc1ccccc1" .
Completion: false (0)

Prompt: Tell me the recorded outcome of this test for "O=c1c2ccccc2nc(COc2ccccc2)n1/N=C/C=C/c1ccccc1" .
Completion: false (0)

Prompt: Tell me the recorded outcome of this test for "COc1ccc2c(C3=C(c4c[nH]c5ccccc45)C(=O)N(O)C3=O)coc2c1" .
Completion: false (0)

Prompt: Tell me the recorded outcome of this test for "Oc1ccc(CSc2nnc(-c3cnccn3)o2)c2cccnc12" .
Completion: false (0)

Prompt: Tell me the recorded outcome of this test for C#CCOc1ccc(C(Nc2cc(Cl)ccc2Cl)c2nnnn2C2CCCCC2)cc1 (configuration not stated) .
Completion: false (0)

###

Test system: SF-295 CNS
Experiment: NCI-60 one-dose screen, 48 h (100 = growth as untreated, 0 = no growth, -100 = all killed)
Conditions: 10 µM unless noted
This is part of a sample that, as a whole, favours compounds with a hit. Of some 83,000 tested, about 20% had one in any assay.
MEASURED METRIC: growth (%)
Unit % implied. Number only.

Prompt: Quick check: growth of C/C(=C(/C)C1CC1CCN(C(=O)c1ccc([N+](=O)[O-])cc1)S(=O)(=O)c1ccc(C)cc1)C1CCCCC1 (centres undefined) ?
Completion: 104

Prompt: Quick check: growth of O=C(COc1ccc(C2SCC(=O)N2c2ccccc2)cc1)c1ccccc1 (centres undefined) ?
Completion: 96.9

Prompt: Quick check: growth of "C=C(C)[C@@H]1CC[C@]2(C(=O)NCCCN(CCC#N)CCC#N)CC[C@]3(C)[C@H](CC[C@@H]4[C@@]5(C)CCC(=O)C(C)(C)[C@@H]5CC[C@]43C)[C@@H]12" ?
Completion: 97.1

Prompt: Quick check: growth of "Clc1ccc(-c2csc(N/N=C/c3nc4ccccc4n3C3CC3)n2)cc1" ?
Completion: 96.5

Prompt: Quick check: growth of "COc1cc2c3c(n(CCCNC4CCCC4)c(=O)c2cc1OC)-c1cc2c(cc1C3=O)OCO2" ?
Completion: -76.8

Prompt: Quick check: growth of "Cc1ccc(/C=C/c2nn3c(-c4ccco4)nnc3s2)cc1" ?
Completion: 95.7

Prompt: Quick check: growth of "CCc1ccc(NC(=O)N[C@@H](Cc2cc(F)cc(F)c2)C(=O)N[C@@H]2C(=O)N3CCC[C@H]3C(=O)N3CCO[C@H](C)[C@H]3C(=O)N[C@@H](CO)C(=O)N3C[C@H](C)C[C@H]3C(=O)O[C@H]2C)c(F)c1" ?
Completion: 12.6

Prompt: Quick check: growth of "COc1ccc(NC(=O)[C@H](C)NC(=O)OC(C)(C)C)cc1C(=O)Nc1cccc(-c2cc(=O)c3c(OC)c(OC)c(OC)cc3o2)c1" ?
Completion: -11.4

Prompt: Quick check: growth of CCCC(=O)NC(c1cccnc1)c1cc(Cl)c2cccnc2c1O (centres undefined) ?
Completion: 10.8

Prompt: Quick check: growth of "COc1cc2oc(-c3cccc(NC(=O)c4cc(NC(=O)[C@H](C)NC(=O)OC(C)(C)C)ccc4C)c3)cc(=O)c2c(OC)c1OC" ?
Completion: 65.5

Prompt: Quick check: growth of "CNC(=O)c1cc(Oc2ccc3nc(NC(=O)c4ccc(CN5CCN(C)CC5)c(C(F)(F)F)c4)sc3c2)ccn1" ?
Completion: 36

Prompt: Quick check: growth of "Cc1cc(=O)n2nc(-c3c[nH]c4ccccc34)sc2n1" ?
Completion: 103

Prompt: Quick check: growth of "COc1ccc(-c2nc3cc(Cl)c(Cl)cc3n2CC(=O)N=Nc2c(O)[nH]c3ccc(Br)cc23)cc1" ?
Completion: -50

Prompt: Quick check: growth of "NNC(=O)c1sc2nc(-c3cnccn3)cc(-c3cccs3)c2c1N" ?
Completion: 104

Prompt: Quick check: growth of CCCC(=O)NC(c1cccnc1)c1cc(C(C)=O)c2cccnc2c1O (centres undefined) ?
Completion: 13.9

Prompt: Quick check: growth of "CC(C)=CCc1c(O)c(CC=C(C)C)c2c(c1O)C(=O)C1=C[C@@H]3C[C@H]4C(C)(C)O[C@@](C/C=C(\C)C(=O)O)(C3=O)[C@@]14O2" ?
Completion: -9.35

Prompt: Quick check: growth of "Cc1ccc(/C=C/CC(=O)Nc2ccc(C(=O)Nc3ccc(F)cc3N)nc2)cn1" ?
Completion: 49.1

Prompt: Quick check: growth of "COc1ccc(-c2nnc(/N=C3/C(=O)Nc4ccc(Br)cc43)o2)cc1" ?
Completion: 99.2

Prompt: Quick check: growth of "COc1cc(/C=N/n2cnc3oc(-c4ccccc4)cc3c2=N)cc(CN2CCCCC2)c1O" ?
Completion: -96

Prompt: Quick check: growth of "C/C=C/[C@@H]1C=C[C@@H]2C[C@H](C)CC[C@H]2[C@]1(C)/C(O)=C1/C(=O)[C@H](CO)N(C)C1=O" ?
Completion: 43.3

Prompt: Quick check: growth of "Cc1ccc(/C=C/CC(=O)Nc2ccc(C(=O)Nc3ccc(F)cc3N)cc2)cn1" ?
Completion: 69.7

Prompt: Quick check: growth of CS(=O)c1nccc(-c2c(-c3ccc(F)c(OCc4ccc(F)cc4)c3)nc3sccn23)n1 (centres undefined) ?
Completion: 97.8

Prompt: Quick check: growth of "NS(=O)(=O)c1ccc(Nc2nc(N/N=C/c3ccc([N+](=O)[O-])cc3)nc(Nc3ccccc3)n2)cc1" ?
Completion: 57.1

Prompt: Quick check: growth of "O=C(O)c1ccc(-n2cc(CNc3ccc(Cl)cc3)c(-c3ccc(F)cc3)n2)cc1" ?
Completion: 87.6

Prompt: Quick check: growth of "Cc1ccc(-c2csc(N/N=C/c3nc4ccccc4n3C3CC3)n2)cc1" ?
Completion: 96.8

Prompt: Quick check: growth of "COc1cc(CNC(=O)Cc2ccccc2[N+](=O)[O-])ccc1OCC(=O)NO" ?
Completion: 105

Prompt: Quick check: growth of "N#Cc1c(NC(=O)c2ccc(F)c(Cl)c2)sc2c1CCC(=O)C2" ?
Completion: -12.2

Prompt: Quick check: growth of "Cc1cn(-c2cc(NC(=O)c3cncc(C#Cc4cnc5ccc(O[C@H]6CCOC6)nn45)c3)cc(C(F)(F)F)c2)cn1" ?
Completion: 96.8

Prompt: Quick check: growth of "CC[C@]12C=CCN3CC[C@]4(C(=C(C(=O)OC)C1)Nc1cc5c(cc14)[C@@H]1[C@H](O5)[C@@H](O)[C@@]4(CC)CC(C(=O)OC)=C5Nc6cc(OC)ccc6[C@@]56CCN1[C@@H]46)[C@@H]32" ?
Completion: 15.4
